src = ChEMBL document CHEMBL1201862

# System: NCI-H226
# method: NCI tumour cell line growth inhibition, 48 h
Activity calls are given as the source filed them. Cut-off read from the data, not from the text of the source: active = GI50 up to about 1.1 µM and inactive = higher.
recorded_metric: GI50

# annotated cases, reported GI50 shown
compound | system | GI50
CC(=O)Oc1c(-c2ccccc2)oc2ccccc12 | NCI-H226 | 2.07 µM (inactive)
O=C1NC(=O)c2ccccc2/C1=C/c1ccc2c(c1)OCO2 | NCI-H226 | 27.9 µM (inactive)

Would you mind listing GI50 for each of the following compounds?
1. O=C1CC(c2ccccc2Cl)C2(C(=O)NC(=O)NC2=O)C(c2ccccc2Cl)C1 (stereo unspecified)
2. COc1ccc(/C=C2\CN(C)Cc3c2nc(O)c(C#N)c3-c2ccc(OC)cc2)cc1
3. CN1C(=O)N(C)C(N2CCCC2)c2c1nc1ccccn1c2=O (stereo unspecified)
4. Cc1ccc2c(O)cc(-c3sc4ccccc4c3C)nc2n1

OUTPUT:
["65.8 µM (inactive)", "> 100 µM (inactive)", "> 100 µM (inactive)", "20.4 µM (inactive)"]

Would you mind listing GI50 for each of the following compounds?
1. c1ccc(Cn2c(-c3ccc(-c4ccccc4)cc3)cc3ccccc32)cc1
2. Cc1ccsc1/C=N/Nc1ccccn1
3. O=C1C2=C(CC3=C(C2)CS(=O)(=O)C3)C(=O)C2=C1CC1=C(C2)CS(=O)(=O)C1
4. CC(=O)CC(=O)ON(C)C(=O)Cc1ccccc1
5. CC1NS(=O)(=O)N(C)C1=O (stereo unspecified)

OUTPUT:
1: > 100 µM (inactive); 2: > 100 µM (inactive); 3: 24.4 µM (inactive); 4: > 100 µM (inactive); 5: > 100 µM (inactive)

---

# Tested on: A498
# method: NCI tumour cell line growth inhibition, 48 h
The source made the active and inactive calls. Rule as the data show it: active = GI50 up to about 1.1 µM and inactive = higher.
Please provide measured GI50 for the entries that follow.

molecule | val
Cc1ccc(S(=O)(=O)NCCCSCCSCCCN)cc1 | > 100 µM (inactive)
CCCC(=O)NC(Nc1ccc(S(=O)(=O)Nc2nc(C)cc(C)n2)cc1)(C(F)(F)F)C(F)(F)F | > 100 µM (inactive)
O=C1C2CC=CCC2C(=O)N1n1c(Cc2ccc(Cl)cc2)n[nH]c1=O (stereo unspecified) | > 100 µM (inactive)
CO/N=C1/c2sccc2[C@H](NC(=O)C(F)(F)F)[C@@H]1O | > 100 µM (inactive)
COC(=NCCC1=CCCCC1)OC | > 100 µM (inactive)
CCOC(=O)c1c(NNc2ccccc2)nc2ccccc2c1-c1ccccc1 | > 100 µM (inactive)

Would you mind listing GI50 for each of the following molecules?
1. CN(C)CC1CCC/C(=C\c2ccc(OC(=O)/C=C/c3ccc(Cl)cc3)cc2)C1=O (stereo unspecified)
2. COc1ccc(Nc2cc(O)nc(O)n2)cc1
3. CC(=O)O[C@@H]1[C@@H](O)C2=C3[C@]4(C)[C@@H]1C(C)(C)C(=O)C[C@@H]4[C@]3(O)[C@H](OC(C)=O)[C@@]1(C[C@@H]1C)C2=O
4. CCc1n[nH]c(=O)n1CCO
5. Oc1ccc2ccccc2c1CCc1c(O)ccc2ccccc12

OUTPUT:
8.53 µM (inactive)
> 100 µM (inactive)
23.4 µM (inactive)
> 100 µM (inactive)
18.5 µM (inactive)

---

# System: SNB-78
# method: NCI tumour cell line growth inhibition, 48 h
Activity calls are given as the source filed them. No stated cut-off is given here; in the data, active = GI50 up to about 1.1 µM and inactive = higher.
Please provide measured GI50 for the entries that follow.

# annotated cases, reported GI50 shown
compound | GI50
CC(=O)Oc1cc(Cl)c(OC(C)=O)c2c(OC(C)=O)c(C)c(O[Si](C)(C)C(C)(C)C)cc12 | 3.12 µM (inactive)
O=C(Nc1ccc(Cl)cc1Cl)C(=O)Nn1c(S)nc2ccccc2c1=O | > 100 µM (inactive)
Clc1ccc2c(c1)[nH]c1c2nc2ccccn21 | 24 µM (inactive)
CC(=O)c1c2c(cc3c1CC1(C3)Cc3cc4c(c(C(=O)O)c3C1)CCC4)CCC2 (stereo not given) | 55.6 µM (inactive)
COC1(OC)CC2C(=O)N(Cc3ccccc3)C1C(S(=O)(=O)c1ccccc1)C2C(C)S(=O)(=O)c1ccccc1 (stereo not given) | > 100 µM (inactive)

Would you mind listing GI50 for each of the following compounds?
1. Fc1ccc(C2SCc3nc4ccccc4n32)c(F)c1 (stereo not given)
2. CCc1cccc(CC)c1NC(=O)C1=CNC(C)=C(C(=O)Nc2c(CC)cccc2CC)C1c1ccc(O)c(OC)c1 (stereo not given)
3. CCc1nc2c(O)ccc(O)c2nc1C
4. C#CCNC(=O)NC(CCCCNC(=O)OCc1ccccc1)C(=O)OCc1ccccc1 (stereo not given)
5. Cc1ccc(S(=O)(=O)N2c3ccccc3[C@H]3CCC=C[C@H]32)cc1

OUTPUT:
1: 38.1 µM (inactive); 2: 28.7 µM (inactive); 3: 27.8 µM (inactive); 4: 23.9 µM (inactive); 5: 19.2 µM (inactive)

---

Please provide measured GI50 for the entries that follow.
# Tested on: LOX IMVI
# method: NCI tumour cell line growth inhibition, 48 h
Activity calls are given as the source filed them. Rule as the data show it: active = GI50 up to about 1.1 µM and inactive = higher.

# annotated cases, reported GI50 shown
molecule | system | val
O=c1[nH]c(=O)n(C2OC(CO)C(O)C2O)cc1OCCCc1ccccc1 (stereo unspecified) | LOX IMVI | > 100 µM (inactive)
COc1ccc(/C=C2\CN(C)Cc3c2nc(O)c(C#N)c3-c2ccc(OC)cc2)cc1 | LOX IMVI | 92.7 µM (inactive)
[O-][n+]1cn[n+]([O-])c2ccccc21 | LOX IMVI | 23.9 µM (inactive)

Would you mind listing GI50 for each of the following molecules?
1. COC1(OC)CC2C(=O)N(Cc3ccccc3)C1C(S(=O)(=O)c1ccccc1)C2C(C)S(=O)(=O)c1ccccc1 (stereo unspecified)
2. NC1=NS(=O)(=O)Nc2nc(-c3ccccc3)c(-c3ccccc3)nc21
3. O=C(Cc1nc2ccc(C(=O)c3ccccc3)cc2nc1O)C(=O)Nc1ccc(C(F)(F)F)cc1[N+](=O)[O-]
4. Cc1ccc(S(=O)(=O)N2c3ccccc3[C@H]3CCC=C[C@H]32)cc1
5. Cc1ncc(CO)c(/C=N/CCCCCC/N=C/c2c(CO)cnc(C)c2[O-])c1[O-].[Mg+2]
6. CCc1n[nH]c(=O)n1CCO
7. COC(=O)C1(c2ccc(OC)cc2)NC(c2ccccc2)C2C(=O)N(c3ccc(OC)cc3)C(=O)C21 (stereo unspecified)
8. O=C1C2=C(CC3=C(C2)CS(=O)(=O)C3)C(=O)C2=C1CC1=C(C2)CS(=O)(=O)C1

OUTPUT:
["> 100 µM (inactive)", "> 100 µM (inactive)", "39.4 µM (inactive)", "10.4 µM (inactive)", "> 100 µM (inactive)", "> 100 µM (inactive)", "> 100 µM (inactive)", "14.3 µM (inactive)"]

Would you mind listing GI50 for each of the following molecules?
1. CC(=O)OC1C/C(C)=C/[C@H](O)CC(C)/C=C/[C@@]2(C)CCC(C(C)(C)O)C12 (stereo partly specified)
2. CCCC1C(C#N)(C#N)C(C#N)=C(N)C1(C)C(C)=O (stereo unspecified)
3. O=C(O)CSc1ccc(N=C=S)cc1
4. O=C(O)CCCOc1cc(-c2ccccc2F)nc2cc3c(cc12)OCO3
5. O=C1c2ccccc2NC(=S)[C@@H]2CCCN12
6. COc1cccc(OC)c1C1ON=C(c2ccccc2)N1C12CC3CC(CC(C3)C1)C2 (stereo unspecified)
7. COc1ccc(-n2cnc3c(NC(CCSC)C(=O)O)ncnc32)cc1 (stereo unspecified)

OUTPUT:
1. > 100 µM (inactive)
2. > 100 µM (inactive)
3. 48.6 µM (inactive)
4. 4.51 µM (inactive)
5. > 100 µM (inactive)
6. > 100 µM (inactive)
7. > 100 µM (inactive)

Would you mind listing GI50 for each of the following molecules?
1. O=[N+]([O-])C(=C(Nc1ccccc1)Nc1ccccc1)/C(Cl)=C(\Cl)[N+](=O)[O-]
2. Cc1ccccc1NC(=O)C1C(=O)N(c2ccccc2C)C(=O)/C1=N\NC(N)=S (stereo unspecified)
3. CCN(CC)CCSc1c(C(C)=O)c(=O)n(-c2ccccc2)c(=S)n1-c1ccccc1

OUTPUT:
1. 2.92 µM (inactive)
2. > 100 µM (inactive)
3. 3.32 µM (inactive)

---

Please provide measured GI50 for the entries that follow.
# System: HL-60
# method: NCI tumour cell line growth inhibition, 48 h
Activity calls are given as the source filed them. Rule as the data show it: active = GI50 up to about 1.1 µM and inactive = higher.

# annotated cases, reported GI50 shown
compound | recorded_metric | val
COc1cc(OC)cc(Oc2nc3ccccc3nc2C(F)(F)F)c1 | GI50 | 22.3 µM (inactive)
O=P(Oc1ccc(Cl)cc1)(Oc1ccc(Cl)cc1)N1CC1 | GI50 | > 10 µM (inactive)
CC(C)(Br)C(=O)C(Br)Br | GI50 | 1.9 µM (inactive)

Would you mind listing GI50 for each of the following compounds?
1. C/C(=N/NC(=S)N1CCCCCC1)c1ccccc1O
2. Clc1ccc(Cl)c2[s+]snc12
3. C#CCNC(=O)NC(CCCCNC(=O)OCc1ccccc1)C(=O)OCc1ccccc1 (stereo not given)
4. Cc1ccc(NCCCN2CCN(CCCNc3ccc(C)c4sc5ccccc5c(=O)c34)CC2)c2c(=O)c3ccccc3sc12

OUTPUT:
["2.25 µM (inactive)", "50.7 µM (inactive)", "16 µM (inactive)", "> 100 µM (inactive)"]

Would you mind listing GI50 for each of the following compounds?
1. CC(=O)c1ccc2c3c1[C@@H]1O[C@@H]1c1cccc(c1-3)[C@@H]1O[C@H]21
2. C/C(=N\O)C(CN(C)C)C(c1ccccc1)c1c(O)c2ccccc2oc1=O (stereo not given)
3. CC1=C(/C=C/C(C)=C/C=C/C(C)=C/C(=O)O)C(C)(C)CCC1

OUTPUT:
9.91 µM (inactive)
> 100 µM (inactive)
18 µM (inactive)
